# target.system: acetylcholine receptor (Homo sapiens)
# Sequence (P02708 21-457): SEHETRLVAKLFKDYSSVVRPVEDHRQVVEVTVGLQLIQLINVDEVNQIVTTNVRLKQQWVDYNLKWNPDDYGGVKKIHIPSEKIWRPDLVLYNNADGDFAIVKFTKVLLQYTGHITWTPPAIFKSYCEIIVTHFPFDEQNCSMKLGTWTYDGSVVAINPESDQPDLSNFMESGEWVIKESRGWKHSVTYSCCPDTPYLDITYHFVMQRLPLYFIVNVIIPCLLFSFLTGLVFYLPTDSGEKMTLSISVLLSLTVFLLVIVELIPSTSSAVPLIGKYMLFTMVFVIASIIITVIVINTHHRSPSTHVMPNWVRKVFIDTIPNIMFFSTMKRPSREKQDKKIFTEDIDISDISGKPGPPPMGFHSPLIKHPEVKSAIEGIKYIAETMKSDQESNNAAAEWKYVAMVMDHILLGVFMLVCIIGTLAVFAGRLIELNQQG
# assay.info: SPR binding affinity (RU) of optimized 5mer/6mer/7mer peptides, Examples 6-7
# test.context: 6mer-1 Top sequence; SPR; peptides tested at 10 μM
# Binding affinity per record follows
assay.readout: Binding affinity (Ru)

>>> obs_value("6mer-1-397 (KRLILR)")
125
>>> obs_value("6mer-1-261 (KRWVTR)")
121
>>> obs_value("6mer-1-211 (KKQLLR)")
123
>>> obs_value("6mer-1-293 (RKRVCK)")
154
>>> obs_value("6mer-1-300 (RRWQQK)")
148
>>> obs_value("6mer-1-354 (KKVFLK)")
153
>>> obs_value("6mer-1-267 (KRRLLR)")
139
>>> obs_value("6mer-1-320 (KRVQYR)")
121
>>> obs_value("6mer-1-227 (KRLVQK)")
139
>>> obs_value("6mer-1-269 (RKRRQR)")
142
>>> obs_value("6mer-1-303 (RKQYCK)")
123
>>> obs_value("6mer-1-402 (RRRVLR)")
153
>>> obs_value("6mer-1-401 (RRLYCR)")
127
>>> obs_value("RRGVRR [6mer-1-210]")
184
>>> obs_value("6mer-1-302 (RRGQSR)")
151
>>> obs_value("6mer-1-373 (KRGVLK)")
149
>>> obs_value("6mer-1-356 (KRGYSK)")
153
>>> obs_value("6mer-1-248 (RRLIYK)")
151
>>> obs_value("6mer-1-349 (KRLYSK)")
123
>>> obs_value("6mer-1-396 (KRQIQK)")
148
>>> obs_value("6mer-1-322 (KRGVQR)")
146
>>> obs_value("6mer-1-218 (KKQVTR)")
126
>>> obs_value("6mer-1-208 (KRSIQR)")
122
>>> obs_value("6mer-1-317 (KRSFRR)")
148
>>> obs_value("6mer-1-223 (KKRRRK)")
133
>>> obs_value("6mer-1-216 (RKSIQR)")
148
>>> obs_value("6mer-1-336 (KRVVTK)")
154
>>> obs_value("6mer-1-308 (KRRITR)")
135
